# System: RARg:RXRa (NR concentration 270 nM, RXRa partner concentration 90 nM)
# assay.overview: PBM binding z-score (relative to random genomic background probes); higher = stronger binding; sequences stand for … in GC…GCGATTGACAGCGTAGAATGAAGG
endpoint.name: PBM binding z-score
Give your answer as a number; write no unit.

Example sequences with recorded PBM binding z-score:
{"columns": ["item.sequence", "recorded.result"],
 "data": [
  ["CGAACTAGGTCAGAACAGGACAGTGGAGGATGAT", 2.47],
  ["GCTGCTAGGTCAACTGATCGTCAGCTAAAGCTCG", 4.5],
  ["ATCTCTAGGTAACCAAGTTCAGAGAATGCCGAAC", 0.849]
]}

Consider the sequence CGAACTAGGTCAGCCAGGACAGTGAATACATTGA and give its measured PBM binding z-score.
3.04

Please answer likewise for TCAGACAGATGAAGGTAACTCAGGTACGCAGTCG
0.326

Now try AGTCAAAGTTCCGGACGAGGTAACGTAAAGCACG .
0.181

Param item: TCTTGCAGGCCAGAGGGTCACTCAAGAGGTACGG
2.73

Try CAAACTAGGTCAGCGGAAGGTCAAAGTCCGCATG next.
7.66

Okay, and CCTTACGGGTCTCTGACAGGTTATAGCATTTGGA ?
0.29

What would you report for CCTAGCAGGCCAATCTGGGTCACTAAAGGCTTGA ?
0.915

Subsequent entry: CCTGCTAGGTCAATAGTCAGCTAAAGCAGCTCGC
3.06
